Assay: In vivo biodegradability assay (lipid concentration in mouse liver by LC-MS)
Set-up: species or system mice
Details: Table 2, 0.1 mpk, BLOQ: below level of quantification
Metric: In vivo degradability (ng/tissue) at 48 h 0.1 mpk

| Compound | Readout value |
| --- | --- |
| CCCCCCCCC(=O)OCC(COC(=O)CCCCCCCC)COC(=O)CCN(CCC(=O)OCC(COC(=O)CCCCCCCC)COC(=O)CCCCCCCC)C(=O)SCCCN(C)C | <340 ng/tissue |
| CCCCCCCCC(=O)OCC(COC(=O)CCCCCCCC)OC(=O)CCC(CCC(=O)OC(COC(=O)CCCCCCCC)COC(=O)CCCCCCCC)OC(=O)CCCN(C)C | BLOQ |
| CCCCCCCCC(=O)OCC(COC(=O)CCCCCCCC)COC(=O)CCCN(CCCC(=O)OCC(COC(=O)CCCCCCCC)COC(=O)CCCCCCCC)C(=O)SCCCN(C)C | BLOQ |
| CCCCC(C)(C)CC(=O)OCC(C)(COC(=O)CCN(CCC(=O)OCC(C)(COC(=O)CC(C)(C)CCCC)COC(=O)CC(C)(C)CCCC)C(=O)SCCCN(C)C)COC(=O)CC(C)(C)CCCC | <340 ng/tissue |
| CN(C)CCCSC(=O)N(CCCC(=O)OC(COC(=O)C1CC2CCCCC2C1)COC(=O)C1CC2CCCCC2C1)CCCC(=O)OC(COC(=O)C1CC2CCCCC2C1)COC(=O)C1CC2CCCCC2C1 (stereo not shown) | BLOQ |
| CCCCCCCC(=O)OCC(COC(=O)CCCCCCC)OC(=O)CCCC(CCCC(=O)OC(COC(=O)CCCCCCC)COC(=O)CCCCCCC)SC(=O)CCCN(C)C | BLOQ |
| CCCCCCCCC(=O)OCC(COC(=O)CCCCCCCC)OC(=O)CCCC(CCCC(=O)OC(COC(=O)CCCCCCCC)COC(=O)CCCCCCCC)OC(=O)CCCN(C)C.Cl | BLOQ |
| CCCCCCCCC(=O)OCC(COC(=O)CCCCCCCC)OC(=O)CCCN(CCCC(=O)OC(COC(=O)CCCCCCCC)COC(=O)CCCCCCCC)C(=O)SCCCN(C)C | BLOQ |
| CC1CCC(CCC(=O)OCC(C)(COC(=O)CCC2CCC(C)CC2)COC(=O)CCN(CCC(=O)OCC(C)(COC(=O)CCC2CCC(C)CC2)COC(=O)CCC2CCC(C)CC2)C(=O)SCCCN(C)C)CC1 (stereo not shown) | <340 ng/tissue |
| CCCCCCC(C)C(=O)OCC(COC(=O)C(C)CCCCCC)OC(=O)CCCN(CCCC(=O)OC(COC(=O)C(C)CCCCCC)COC(=O)C(C)CCCCCC)C(=O)SCCCN(C)C (stereo not shown) | 639 ng/tissue |
| CC1CCC(CCC(=O)OCC(COC(=O)CCC2CCC(C)CC2)COC(=O)CCN(CCC(=O)OCC(COC(=O)CCC2CCC(C)CC2)COC(=O)CCC2CCC(C)CC2)C(=O)SCCCN(C)C)CC1 (stereo not shown) | BLOQ |
| CCCCCC(C)(C)C(=O)OCC(COC(=O)C(C)(C)CCCCC)OC(=O)CCCN(CCCC(=O)OC(COC(=O)C(C)(C)CCCCC)COC(=O)C(C)(C)CCCCC)C(=O)SCCCN(C)C | 847 ng/tissue |
| CCCCCCCCC(=O)OCC(COC(=O)CCCCCCCC)OC(=O)CCN(CCC(=O)OC(COC(=O)CCCCCCCC)COC(=O)CCCCCCCC)C(=O)SCCCN(C)C | <340 ng/tissue |
| CN(C)CCCSC(=O)N(CCCCCC(=O)OC(COC(=O)CCC1CCCCC1)COC(=O)CCC1CCCCC1)CCCCCC(=O)OC(COC(=O)CCC1CCCCC1)COC(=O)CCC1CCCCC1 | BLOQ |
| CCCCCCCC(=O)OCC(C)(COC(=O)CCCCCCC)COC(=O)CCN(CCC(=O)OCC(C)(COC(=O)CCCCCCC)COC(=O)CCCCCCC)C(=O)SCCCN(C)C | BLOQ |
| CC(CC1CCCCC1)C(=O)OCC(COC(=O)C(C)CC1CCCCC1)OC(=O)CCCN(CCCC(=O)OC(COC(=O)C(C)CC1CCCCC1)COC(=O)C(C)CC1CCCCC1)C(=O)SCCCN(C)C (stereo not shown) | BLOQ |
| CN(C)CCCSC(=O)N(CCCC(=O)OC(COC(=O)C1CCC2CCCC2C1)COC(=O)C1CCC2CCCC2C1)CCCC(=O)OC(COC(=O)C1CCC2CCCC2C1)COC(=O)C1CCC2CCCC2C1 (stereo not shown) | BLOQ |
| CCCCCCCCC(=O)OCC(COC(=O)CCCCCCCC)COC(=O)CCN(CCC(=O)OCC(COC(=O)CCCCCCCC)COC(=O)CCCCCCCC)C(=O)SCCN(C)C | BLOQ |
| CN(C)CCCSC(=O)N(CCCC(=O)OC(COC(=O)CCC1CCCCC1)COC(=O)CCC1CCCCC1)CCCC(=O)OC(COC(=O)CCC1CCCCC1)COC(=O)CCC1CCCCC1 | BLOQ |
| CC1CCC(CC(=O)OCC(C)(COC(=O)CCN(CCC(=O)OCC(C)(COC(=O)CC2CCC(C)CC2)COC(=O)CC2CCC(C)CC2)C(=O)SCCCN(C)C)COC(=O)CC2CCC(C)CC2)CC1 (stereo not shown) | <340 ng/tissue |
| CCC1CCC(C(=O)OCC(COC(=O)C2CCC(CC)CC2)OC(=O)CCCN(CCCC(=O)OC(COC(=O)C2CCC(CC)CC2)COC(=O)C2CCC(CC)CC2)C(=O)SCCCN(C)C)CC1 (stereo not shown) | <340 ng/tissue |
| CC1CCC(CC(=O)OCC(COC(=O)CC2CCC(C)CC2)OC(=O)CCCN(CCCC(=O)OC(COC(=O)CC2CCC(C)CC2)COC(=O)CC2CCC(C)CC2)C(=O)SCCCN(C)C)CC1 (stereo not shown) | <340 ng/tissue |
